Entries and their measured Phage binding ELISA signal, Anti-PSMA Fab follow.
- SYSTEM NAME: T1, PSMA Fab (006 PSMA Fab)
- T1 construct: In the phage ELISA the PSMA Fab was biotinylated and captured on neutravidin coated plates; also called Anti-PSMA Fab; anti-PSMA Fab
- METHOD NOTES: phage ELISA; biotinylated PSMA Fab on neutravidin plate, clonal phage supernatant, anti-M13 HRP detection;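 note: wells preincubated with PSMA antigen in blocking buffer or with blocking buffer only before clonal phage were added for a short incubation, then bound phage detected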
Where no end group is shown, it is not given here.
Give the value as a plain number.

Solved entries:
BINDER	READING
EFKWCSPAQLCVNG [Phage-2832 (Peptide-180 library clone)]	0.447
QAIWCIPDWMCVQN [Phage-2830 (Peptide-180 library clone)]	0.454
FEKWCTPLWMCADS (cysteine pairing not given here; also: fused to pIII, displayed on bacteriophage) [Phage-2820 (Peptide-180 library clone)]	0.5

Moving on to another binder below.
Task: Any idea what Phage binding ELISA signal, Anti-PSMA Fab was measured for EVKWCTPYWMCIDT [Phage-2833 (Peptide-180 library clone)] ?
Result: 0.443

The reported numbers originate from patent US20260242478A1.
